- TARGET_UNDER_TEST: dP2XE (Dictyostelium discoideum)
- Sequence (Q54JH4 whole entry): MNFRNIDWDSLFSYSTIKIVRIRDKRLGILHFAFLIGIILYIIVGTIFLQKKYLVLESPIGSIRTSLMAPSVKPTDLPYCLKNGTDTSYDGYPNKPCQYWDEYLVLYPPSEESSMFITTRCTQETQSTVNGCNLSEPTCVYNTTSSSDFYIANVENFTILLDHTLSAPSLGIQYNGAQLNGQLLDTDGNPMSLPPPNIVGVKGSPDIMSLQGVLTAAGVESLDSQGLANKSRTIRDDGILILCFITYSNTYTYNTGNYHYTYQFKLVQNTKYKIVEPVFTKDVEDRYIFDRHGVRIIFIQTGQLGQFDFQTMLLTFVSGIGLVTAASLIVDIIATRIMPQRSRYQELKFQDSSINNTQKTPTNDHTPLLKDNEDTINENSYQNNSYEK
- EXPERIMENT: cell-based
EXPERIMENTAL_READOUT: pEC50
Give bare numbers, as −log10 of the molar value.

Request: Query for dP2XE (Dictyostelium discoideum): what pEC50 does the record show for Nc1ncnc2c1ncn2[C@@H]1O[C@H](COP(=O)(O)OP(=O)(O)OP(=O)(O)O)[C@@H](O)[C@H]1O ?
Result: 3.29

====

- TARGET_UNDER_TEST: dP2XA (Dictyostelium discoideum)
- Sequence (Q86JM7 whole entry): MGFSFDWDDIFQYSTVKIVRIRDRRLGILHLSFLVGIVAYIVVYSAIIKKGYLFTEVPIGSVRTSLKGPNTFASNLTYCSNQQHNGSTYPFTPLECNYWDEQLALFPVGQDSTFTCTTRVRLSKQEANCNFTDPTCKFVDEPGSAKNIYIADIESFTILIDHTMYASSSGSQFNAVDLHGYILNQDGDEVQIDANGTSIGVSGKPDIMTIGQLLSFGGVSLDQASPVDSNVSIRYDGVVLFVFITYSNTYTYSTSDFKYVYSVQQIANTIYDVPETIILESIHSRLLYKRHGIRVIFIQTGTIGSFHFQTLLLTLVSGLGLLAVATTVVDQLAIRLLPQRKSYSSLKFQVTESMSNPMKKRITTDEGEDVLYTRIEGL
- EXPERIMENT: two-electrode voltage clamp, Xenopus oocytes, peak current
- Type: cell-based
For each of the molecules below, state its pEC50.
Give bare numbers, as −log10 of the molar value.

INSERT INTO assay_data (molecule, experimental_readout, value) VALUES
  ('Nc1ncnc2c1ncn2[C@@H]1O[C@H](COP(=O)(O)OP(=O)(O)OP(=O)(O)O)[C@@H](O)[C@H]1O [ATP]', 'pEC50', 4.01);

We now examine a further molecule.
Request: Give the measured pEC50 of Nc1ncnc2c1ncn2[C@@H]1O[C@H](COP(=O)(O)OP(=O)(O)NP(=O)(O)O)[C@@H](O)[C@H]1O [β,γ-Imido-ATP] .
Result: 5.51
